# system under test: T1, human monomeric EGFR (EGFR.mmh) (human, UniProt P00533 25-647)
# T1 construct: Soluble monomeric EGFR construct
# experiment summary: SPR 37C, mAb captured by anti-human Fc, EGFR.mmh analyte
property label: t1/2 (min)
Please respond with the number in min and leave the unit unwritten.

Reference set, count: 2
H1H151P (antibody, human IgG1, V domains shown, Human IgG1 Fc (H1H)) VH: QVQLQESGPGLVNPSQTLSLTCTVSGGSINSGDYYWSWVRQHPGKGLEWIGYIYYSGSTYYNPSLKSRVTISVDTSKNQFSLKLSSVTVADTAVYYCARVGYSKGYFDSWGQGTLVTVSS VL: DIQMTQSPSTLSASVGDRVTITCRASESISSWLAWYQQKPGKAPKVLIYDASSLESGVPSRFSGSGSGTEYTLTISSLQPDDFASYYCQQYKSYWTFGQGTKVEIK
10
H1H158P (antibody, human IgG1, V domains shown, Human IgG1 Fc (H1H)) VH: QVQLVESGGGVVQPGGSLRLSCAASGFTFSIYGIHWVRQAPGKGLEWVAVISDDGSNKKYADSVKGRFTISRDNSKNTLYLQMNSLRAEDTAIFYCAKDRITGTHYYGMDVWGQGTTVTVSS VL: DIQMTQSPSSLSASVGDRVSITCRASQDISNYLAWFQQKPGKAPKSLIYAASSLQSGVPSKFSGSGSGIEFTLTISSLQPEDFSTYYCHQYNRFPWTFGQGTKVEIK
15

Kindly consider the entry below.
Fill in: t1/2 of H1H141P (antibody, human IgG1, V domains shown, Human IgG1 Fc (H1H)) VH: QVQLQESGPGLVKPSQTLSLTCTVSGGSISSGDYYWNWIRQYPGKGLELIGYIYYSGITYYNPSLKSRLTISLDTSKNQFSLKLSSVTAADTAVYYCARDRVELRAFDIWGQGTMVTVSS VL: DIQMTQSPSSLSASVGDRVTITCQASQDISNYLNWYQQKPGKAPKLLINDASNLETGVPSRFSGSGSGTDFTFTISSLQPEDIATYYCQHYDSLPLTFGQGTRLEIK is ___
29
